Assay: Half life in Kunming mouse at 10 mg/kg, po measured upto 72 hrs by HPLC analysis
Assay type: ADME, organism-based
Settings: in vivo

>  <line.notation>
CCn1c(=O)c(C(=O)Nc2nnc(-c3nccs3)s2)c(O)c2ccccc21

>  <half-life, h>
2.3

$$$$

---

Test: Cmax in Kunming mouse at 10 mg/kg, po measured upto 72 hrs by HPLC analysis
Assay type: ADME, organism-based
Set-up: route oral, dose 10 mg/kg, time <=72
Details: in vivo

>  <line.notation>
CCn1c(=O)c(C(=O)Nc2nnc(-c3nccs3)s2)c(O)c2ccccc21

>  <result.units>
ng/mL

>  <Cmax>
827

$$$$

---

Test: Tmax in Kunming mouse at 10 mg/kg, po measured upto 72 hrs by HPLC analysis
Format: ADME, organism-based
Details: in vivo
parameter.measured: Tmax

>  <line.notation>
CCn1c(=O)c(C(=O)Nc2nnc(-c3nccs3)s2)c(O)c2ccccc21

>  <parameter.measured>
Tmax

>  <result>
1 h

$$$$

---

Below is a list of entries, each paired with its recorded pIC50 value.
Test system: HepG2
Experiment: Cytotoxicity against human HepG2 cells assessed as reduction in cell viability after 72 hrs by sulforhodamine B assay
Assay type: cell-based
Settings: HepG2, 72 h
pIC50: −log10 of the molar value.

>  <line.notation>
CCn1c(=O)c(C(=O)Nc2nnc(-c3nccs3)s2)c(O)c2ccccc21

>  <measured.on>
HepG2

>  <pIC50>
4.26

$$$$
>  <line.notation>
CCn1c(=O)c(C(=O)Nc2nnc(-c3ccccn3)s2)c(O)c2ccccc21

>  <measured.on>
HepG2

>  <pIC50>
4.20

$$$$
>  <line.notation>
CC(=O)O[C@H]1C(=O)[C@@]2(C)[C@H]([C@H](OC(=O)c3ccccc3)[C@]3(O)C[C@H](OC(=O)[C@H](O)[C@@H](NC(=O)c4ccccc4)c4ccccc4)C(C)=C1C3(C)C)[C@]1(OC(C)=O)CO[C@@H]1C[C@@H]2O

>  <measured.on>
HepG2

>  <pIC50>
8.05

$$$$
>  <line.notation>
CCCCCc1nnc(NC(=O)c2c(O)c3ccccc3n(CC)c2=O)s1

>  <measured.on>
HepG2

>  <pIC50>
4.28

$$$$

---

Target: DNA topoisomerase 4 subunit B (Staphylococcus aureus, UniProt P0C1S7)
Sequence (P0C1S7 whole entry): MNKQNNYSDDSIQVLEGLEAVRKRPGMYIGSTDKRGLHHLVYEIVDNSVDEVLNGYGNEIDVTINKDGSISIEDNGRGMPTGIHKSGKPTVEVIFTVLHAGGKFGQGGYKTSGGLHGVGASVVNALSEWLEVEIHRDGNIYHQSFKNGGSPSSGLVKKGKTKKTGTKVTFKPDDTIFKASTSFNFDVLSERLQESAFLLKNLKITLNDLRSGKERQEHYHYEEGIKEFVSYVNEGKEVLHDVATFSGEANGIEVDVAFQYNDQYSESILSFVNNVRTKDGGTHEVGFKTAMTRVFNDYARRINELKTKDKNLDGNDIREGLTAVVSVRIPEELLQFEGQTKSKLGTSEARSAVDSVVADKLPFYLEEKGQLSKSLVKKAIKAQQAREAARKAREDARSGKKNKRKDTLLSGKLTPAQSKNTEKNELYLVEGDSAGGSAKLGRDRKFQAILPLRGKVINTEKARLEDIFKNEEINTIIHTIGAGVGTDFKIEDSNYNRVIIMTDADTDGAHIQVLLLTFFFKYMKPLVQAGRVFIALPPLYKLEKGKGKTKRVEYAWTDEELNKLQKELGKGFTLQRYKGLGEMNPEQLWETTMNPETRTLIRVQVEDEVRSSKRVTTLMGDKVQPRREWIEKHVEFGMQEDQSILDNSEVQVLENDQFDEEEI
Test: Inhibition of Staphylococcus aures ParE using pBR322 DNA as substrate in presence of ATP

>  <line.notation>
CO[C@@H]1[C@@H](OC(N)=O)[C@@H](O)[C@H](Oc2ccc3c(O)c(NC(=O)c4ccc(O)c(CC=C(C)C)c4)c(=O)oc3c2C)OC1(C)C

>  <reported.relation>
=

>  <IC50 [µM]>
7.9

$$$$
>  <line.notation>
CCn1c(=O)c(C(=O)Nc2nnc(-c3nccs3)s2)c(O)c2ccccc21

>  <reported.relation>
>

>  <IC50 [µM]>
100

$$$$

---

Below is a list of entries, each paired with its recorded MIC value.
Tested on: Staphylococcus aureus
Assay: Antibacterial activity against methicillin-resistant Staphylococcus aureus clinical isolate 15-3 assessed as inhibition of bacterial growth incubated for 18 to 24 hrs by broth microdilution method
Type: functional
Settings: time 18-24 hrs

>  <line.notation>
CCCCCc1nnc(NC(=O)c2c(O)c3ccccc3n(CC)c2=O)s1

>  <result.units>
µg/mL

>  <MIC>
0.5

$$$$
>  <line.notation>
CCCCc1nnc(NC(=O)c2c(O)c3ccccc3n(CC)c2=O)s1

>  <result.units>
µg/mL

>  <MIC>
2

$$$$
>  <line.notation>
CCCc1nnc(NC(=O)c2c(O)c3ccccc3n(CC)c2=O)s1

>  <result.units>
µg/mL

>  <MIC>
2

$$$$
>  <line.notation>
CCn1c(=O)c(C(=O)Nc2nnc(-c3ccccc3)s2)c(O)c2ccccc21

>  <result.units>
µg/mL

>  <MIC>
1

$$$$
>  <line.notation>
CCn1c(=O)c(C(=O)Nc2nnc(-c3nccs3)s2)c(O)c2ccccc21

>  <result.units>
µg/mL

>  <MIC>
0.5

$$$$
>  <line.notation>
CCn1c(=O)c(C(=O)Nc2nnc(-c3cscn3)s2)c(O)c2ccccc21

>  <result.units>
µg/mL

>  <MIC>
4

$$$$
>  <line.notation>
CCc1nnc(NC(=O)c2c(O)c3ccccc3n(C)c2=O)s1

>  <result.units>
µg/mL

>  <MIC>
2

$$$$
>  <line.notation>
CCn1c(=O)c(C(=O)Nc2nnc(C)s2)c(O)c2ccccc21

>  <result.units>
µg/mL

>  <MIC>
2

$$$$
>  <line.notation>
CCc1nnc(NC(=O)c2c(O)c3ccccc3n(CC)c2=O)s1

>  <result.units>
µg/mL

>  <MIC>
2

$$$$
>  <line.notation>
CCn1c(=O)c(C(=O)Nc2nnc(-c3ccccn3)s2)c(O)c2ccccc21

>  <result.units>
µg/mL

>  <MIC>
0.5

$$$$
>  <line.notation>
CCn1c(=O)c(C(=O)Nc2nnc(-c3cccnc3)s2)c(O)c2ccccc21

>  <result.units>
µg/mL

>  <MIC>
0.5

$$$$
